From: patent US11912782B2

# TARGET_OR_TEST_SYSTEM: T1, monomeric human sBCMA (Homo sapiens, UniProt Q02223)
# T1 construct: is comprised of the entire extracellular domain of the molecule; purchased GenScript
# T1 sequence (Q02223 1-54 limits assumed): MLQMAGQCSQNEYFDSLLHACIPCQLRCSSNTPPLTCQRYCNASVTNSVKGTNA
# EXPERIMENTAL_DETAILS: Kinetics/affinity measurement by SPR (BioRad ProteOn XPR36), antibody captured by anti-Fc, sBCMA flowed over
# Assay type: binding
# SETUP_CONDITIONS: unit inferred
READOUT_KIND: Kd (nM)
Report as a plain number; the unit nM is understood.

For P10: lead optimized clone of 15B2GL; VH SEQ ID NO: 19, VL SEQ ID NO: 20 (antibody, V domains shown) VH: EVQLVESGGGLVKPGGSLRLSCAASGFTFRSYSMNWVRQAPGKGLEWVSSISGQSNYIYYADSVKGRFTISRDNAKNSLYLQMNSLRAEDTAVYYCARGGNYYVEYFQYWGQGTLVTVSS VL: EIVLTQSPGTLSLSPGERATLSCRASQYISSNYLAWYQQKPGQAPRLLIYGASNRATGIPDRFSGSGSGTDFTLTISRLEPEDFAVYYCQQYTDSPITFGQGTKLEIK , what is its reported Kd? 5.32
